All values here come from PubChem BioAssay AID1159580.

assay: chemical genetic growth profiling, strain panel (AID 1159580);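 further: tested at 20 µM; growth read once vehicle control cultures reached saturation at 30 °C; 1 = growth at the plate median or of vehicle wells; lower values mean less growth of the strain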; conditions: S. cerevisiae deletion strains, growth OD, locus YKR026C, strain gcn3, hits give low values
Hit rate of the full screen: of about 5,500 compounds, about 2,000 (36%) were called active. Not shown: some 18% with an inconclusive outcome. The list shows a part of the results.
assay_endpoint: normalized growth

Challenge: Give normalized growth for the following compound: `COc1cc2c(cc1OC)[C@@H]1C(=O)c3ccc(O)c(CC=C(C)C)c3O[C@@H]1CO2`
Response given: 1 (inactive)

Challenge: Tell me normalized growth reported for `CC(=O)N[C@@H](CC(C)C)C(=O)O`
Response given: 0.979 (inactive)

Challenge: Return reported normalized growth. Input compound: `O=C(O)c1c2ccccc2cc2ccccc12`
Response given: 1 (inactive)

Challenge: Input `O=C(O)c1cc2ccccc2[nH]1` , output reported normalized growth.
Response given: 0.961 (inactive)

Challenge: Dear colleague, please send me the reported normalized growth for CN1CCc2cc3c(cc2[C@H]1C1OC(=O)c2c1ccc1c2OCO1)OCO3 (stereo partly specified) when you can.
Response given: 0.979 (inactive)

Challenge: Name the recorded normalized growth of the item `COc1cc2c(cc1OC)[C@@H]1C(=O)c3ccc4c(c3O[C@@H]1CO2)C=CC(C)(C)O4` in your answer.
Response given: 1.01 (inactive)
